- Test system: Gibberella Fujikuroi
- METHOD: Activity against bakanae disease of rice plants by seed soaking (Experiment 5)
- Type: in vivo
- Design: key: 0 = disease as untreated, 5 = no disease (complete control)
- EXPERIMENTAL SETUP: infected rice seeds (variety Tanginbozu) immersed 3 days in aqueous suspension (concentration not given), 3 weeks; number of diseased seedlings
Would you kindly list disease controlling index for each of these molecules?
Enter a number only.

Ask: Consider the molecule CC(N=[N+]=[N-])[C@H](C)[C@](O)(Cn1cncn1)c1ccc(F)cc1F (single isomer, unassigned) [83 (oxalate, C-4 isomer 2)] and give its recorded disease controlling index.
Result: 5

Ask: Check the records and state disease controlling index for C[C@@H](NC(=O)c1ccc(C(F)(F)F)cc1)[C@](O)(Cn1cncn1)c1ccc(Cl)cc1Cl [Example 13]
Result: 5

Ask: Look up and report measured disease controlling index for this entry: C[C@@H](CN=[N+]=[N-])[C@](O)(Cn1cncn1)c1ccc(Cl)cc1Cl (relative stereo)
Result: 5

The measurements presented in this section are drawn from patent EP0332387B1.
